// provenance: patent US11926574B2

ASSAY_SYSTEM: 5-HT2C (Homo sapiens, UniProt P28335)
Sequence (P28335 33-458): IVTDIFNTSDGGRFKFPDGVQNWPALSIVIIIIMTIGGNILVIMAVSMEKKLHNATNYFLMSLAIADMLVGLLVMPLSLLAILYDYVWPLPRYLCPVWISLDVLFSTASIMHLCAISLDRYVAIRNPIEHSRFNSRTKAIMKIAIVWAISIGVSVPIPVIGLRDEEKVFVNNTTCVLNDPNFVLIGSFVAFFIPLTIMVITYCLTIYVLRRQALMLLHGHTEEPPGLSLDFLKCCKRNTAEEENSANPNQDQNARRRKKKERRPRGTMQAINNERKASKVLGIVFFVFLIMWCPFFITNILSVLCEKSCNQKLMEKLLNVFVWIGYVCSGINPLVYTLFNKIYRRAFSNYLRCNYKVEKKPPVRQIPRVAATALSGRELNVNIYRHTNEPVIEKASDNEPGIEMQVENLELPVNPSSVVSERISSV
ASSAY_METHOD_TEXT: Calcium mobilization assay (Gq signaling), 5-HT2C
Assay type: cell-based
MEASUREMENT_NAME: pEC50
Quick note: pEC50 values are minus log10 of concentrations in mol/L.

Query pEC50 on 5-HT2C (Homo sapiens, UniProt P28335) for COc1ccc(OC)c(CCNCc2cc(C)cc(Cl)c2)c1
7.04

---

Listing of recorded Emax at 0.3 µM by entry.
ASSAY_SYSTEM: 5HT2A (Homo sapiens)
ASSAY_METHOD_TEXT: 5HT2A Activity (% Max Activation @ 0.3 uM)
Type: cell-based
Structures can show the parent of a compound that is named as a salt.
Entry rule: numbers only, all in %.

Answered cases to consult:
In [3]: df
Out[3]:
                                   compound  reported_value
0     COc1cc(CCNCc2cc(C)cc(Cl)c2)c(OC)cc1Cl              92
1       COc1ccc(OC)c(CCNCc2cc(C)cc(Cl)c2)c1              98
2  COc1ccc(OC)c2c1CCC(NCc1cccc(C)c1Cl)C2 (stereo not drawn)               2
3  COc1ccc(OC)c([C@@H](O)CNCc2cc(C)cc(F)c2)c1 [Compound 2-41, hydrochloride]              74
4      COc1cc(CCNCc2cc(C)cc(Cl)c2)c(OC)cc1F              89
5         COc1ccc(OC)c(CCNCc2cc(C)ccc2Cl)c1              67

For the compound shown here, COc1ccc(OC)c(CCNCc2cccc(Cl)c2C)c1 , give the reported Emax at 0.3 µM.
20

Input COc1ccc(OC)c(CCNCc2ccc(Cl)c(C)c2)c1
1

# iterate: COc1cc([S+](C)[O-])c(OC)cc1CCNCc1cc(C)cc(Cl)c1 (stereo not drawn)
95

---

ASSAY_SYSTEM: 5HT2A (Homo sapiens, UniProt P28223)
Sequence (P28223 whole entry): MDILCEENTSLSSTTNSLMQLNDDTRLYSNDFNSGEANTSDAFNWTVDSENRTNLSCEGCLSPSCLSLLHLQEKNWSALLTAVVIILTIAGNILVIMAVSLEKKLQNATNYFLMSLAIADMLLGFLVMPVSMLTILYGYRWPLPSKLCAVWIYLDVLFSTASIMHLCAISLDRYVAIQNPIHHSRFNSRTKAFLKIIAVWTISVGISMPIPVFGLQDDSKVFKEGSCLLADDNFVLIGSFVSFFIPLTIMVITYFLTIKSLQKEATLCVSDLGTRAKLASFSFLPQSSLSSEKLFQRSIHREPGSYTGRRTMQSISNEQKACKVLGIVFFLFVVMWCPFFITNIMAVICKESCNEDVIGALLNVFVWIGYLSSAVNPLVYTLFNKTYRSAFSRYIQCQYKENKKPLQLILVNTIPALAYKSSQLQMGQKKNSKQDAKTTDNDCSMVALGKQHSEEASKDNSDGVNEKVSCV
ASSAY_METHOD_TEXT: 5HT2A Activity (% Max Activation @ 0.3 uM)
Assay type: cell-based
Outcome: met for Emax at 0.3 µM of at least 60%; not met for anything lower.

As a guide, the following entries are already answered.
                                   molecule  discrete_label
0  COc1ccc(OC)c2c1CCC(NCc1ccc(Cl)cc1C)C2 (stereo not drawn) [Compound 1-11]         not met
1  COc1ccc(OC)c(CCNCc2cc(C)cc(I)c2)c1 [Compound 2-11]             met
2  COc1ccc(OC)c(CCNCc2cc(C)cc(F)c2)c1 [Compound 2-2]             met
3  COc1cc(I)c(OC)c2c1CC(NCc1cc(C)cc(Cl)c1)CC2 (stereo not drawn) [Compound 1-2A]             met
4  COc1ccc(OC)c(CCNCc2cc(Cl)cc(Cl)c2)c1 [Compound 2-6]             met

Determine whether measured Emax at 0.3 µM meets or exceeds 60% for COc1ccc(OC)c(CCNCc2cc(C)cc(Br)c2)c1 [Compound 2-10]
met

Another molecule to check: COc1ccc(OC)c(CCNCc2cc(C)cc([N+](=O)[O-])c2)c1 [Compound 2-9]
not met

Another molecule to check: COc1cc([S@@](C)(=N)=O)c(OC)cc1CCNCc1cc(C)cc(Cl)c1 [Compound 2-35]
not met

---

ASSAY_SYSTEM: 5HT2A (Homo sapiens, UniProt P28223)
ASSAY_METHOD_TEXT: PathHunter β-Arrestin assay, 5-HT2A
Format: cell-based
Counter-ions that a name gives are not always drawn.
MEASUREMENT_NAME: EC50

>>> print(df.to_string())
                              molecule  reported_value
0  COc1ccc(OC)c(CCNCc2cc(C)cc(Cl)c2)c1           23 nM

In the following, a different molecule is considered.
Reported EC50, molecule COc1ccc(OC)c2c1CCC(NCc1cc(C)cc(Cl)c1)C2 (centres unmarked) [1-1·HCl] : ____
172 nM

---

ASSAY_SYSTEM: 5HT2A (Homo sapiens)
ASSAY_METHOD_TEXT: 5HT2A Activity (% Max Activation @ 0.3 uM)
Assay type: cell-based
Label 1.0 for high-side Emax at 0.3 µM (at or above 30%) and 0.0 for low-side Emax at 0.3 µM (below it).

                                   compound  discrete_label
0    COc1cc(CCNCc2cc(C)cc(Cl)c2)c(OC)cc1C#N             1.0
1     CCc1cc(OC)c(CCNCc2cc(C)cc(Cl)c2)cc1OC             1.0
2        COc1ccc(OC)c(CCNCc2cccc(Cl)c2Cl)c1             1.0
3  COc1ccc(OC)c2c1CCC(NCc1cccc(Cl)c1Cl)C2 (centres unmarked)             0.0

Next up:
Form field: Emax at 0.3 µM at least 30%? Entry: COc1ccc(OC)c(CC(CO)NCc2cc(C)cc(Cl)c2)c1 (centres unmarked)
0.0

---

ASSAY_SYSTEM: 5-HT1A (Homo sapiens, UniProt P08908)
Sequence (P08908 whole entry): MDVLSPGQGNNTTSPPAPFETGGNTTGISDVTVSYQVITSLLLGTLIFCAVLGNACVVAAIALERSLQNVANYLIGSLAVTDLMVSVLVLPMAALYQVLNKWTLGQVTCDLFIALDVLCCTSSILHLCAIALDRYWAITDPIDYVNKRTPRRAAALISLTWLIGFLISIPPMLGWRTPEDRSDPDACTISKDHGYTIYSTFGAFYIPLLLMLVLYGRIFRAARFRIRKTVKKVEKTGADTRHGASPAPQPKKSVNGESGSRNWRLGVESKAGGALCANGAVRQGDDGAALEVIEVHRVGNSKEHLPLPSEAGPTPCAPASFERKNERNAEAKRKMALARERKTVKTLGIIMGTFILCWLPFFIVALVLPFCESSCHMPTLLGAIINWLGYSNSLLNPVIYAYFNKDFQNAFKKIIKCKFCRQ
ASSAY_METHOD_TEXT: Calcium mobilization assay (Gq signaling), 5-HT1A
Type: cell-based
CONDITION_CONTEXT: Gq signaling; read-out: EC50, 5-HT1A (Gq signaling)
Where a name gives a salt, the structure may show the parent alone.
MEASUREMENT_NAME: EC50 (µM)
Numeric only. Scale: µM

I'd like to know its EC50. The molecule in question is COc1ccc(OC)c2c1CCC(NCc1cc(C)cc(Cl)c1)C2 (stereo not shown) [1-1·HCl]
17.2

---

Each entry below carries its recorded EC50.
ASSAY_SYSTEM: UniProt:P28223
ASSAY_METHOD_TEXT: Calcium mobilization assay (Gq signaling), 5-HT2A
Type: cell-based
Structures can show the parent of a compound that is named as a salt.
A number alone suffices; assume nM.

>>> print(df.to_string())
                                   compound  measurement_name  reported_value
0  COc1ccc(OC)c2c1CCC(NCc1cc(C)cc(Cl)c1)C2 (centres unmarked) [1-1·HCl]              EC50             134

We now examine a further compound.
Write down the reported EC50 of COc1ccc(OC)c(CCNCc2cc(C)cc(Cl)c2)c1 [Compound 2-1] , test system: UniProt:P28223.
10

---

ASSAY_SYSTEM: 5-HT2B (Homo sapiens, UniProt P41595)
Sequence (P41595 whole entry): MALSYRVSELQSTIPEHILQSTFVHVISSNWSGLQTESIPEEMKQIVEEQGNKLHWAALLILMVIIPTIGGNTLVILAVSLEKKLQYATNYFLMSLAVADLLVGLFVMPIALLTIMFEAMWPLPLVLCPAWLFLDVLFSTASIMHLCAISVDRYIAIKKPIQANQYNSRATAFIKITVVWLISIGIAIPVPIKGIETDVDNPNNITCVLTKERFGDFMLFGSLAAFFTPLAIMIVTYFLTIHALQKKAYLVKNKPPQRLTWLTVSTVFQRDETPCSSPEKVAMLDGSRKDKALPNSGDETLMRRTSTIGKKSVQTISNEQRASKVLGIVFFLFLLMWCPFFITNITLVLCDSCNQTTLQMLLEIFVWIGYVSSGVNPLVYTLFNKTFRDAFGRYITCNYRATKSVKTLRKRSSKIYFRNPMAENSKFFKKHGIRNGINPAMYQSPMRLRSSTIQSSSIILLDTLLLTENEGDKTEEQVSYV
ASSAY_METHOD_TEXT: Calcium mobilization assay (Gq signaling), 5-HT2B
Type: cell-based
CONDITION_CONTEXT: Gq signaling; read-out: EC50, 5-HT2B (Gq signaling)
Where a name gives a salt, the structure may show the parent alone.
MEASUREMENT_NAME: EC50 (µM)
The reply should be a number in µM, with the unit left off.

I'd like to know its EC50. The molecule in question is COc1ccc(OC)c2c1CCC(NCc1cc(C)cc(Cl)c1)C2 (stereo not shown) [1-1·HCl]
23.2

---

ASSAY_SYSTEM: 5HT2A (Homo sapiens, UniProt P28223)
ASSAY_METHOD_TEXT: 5HT2A Activity (% Max Activation @ 0.3 uM)
Format: cell-based
Emax at 0.3 µM listing for selected compounds.
Report the figure along with its unit, number first.

>>> print(df.to_string())
                                   compound  measurement_name  reported_value
0         COc1ccc(OC)c(CCNCc2cc(Cl)ccc2C)c1    Emax at 0.3 µM             41%
1  COc1ccc(OC)c2c1CCC(NCc1cc(C)cc(Cl)c1)C2 (stereo not shown)    Emax at 0.3 µM             67%
2  COc1cc(S(C)(=O)=O)c(OC)cc1CCNCc1cc(C)cc(Cl)c1    Emax at 0.3 µM             95%
3  COc1ccc(OC)c2c1CCC2NCc1cc(C)cc(Cl)c1 (stereo not shown)    Emax at 0.3 µM              9%
4  COc1ccc(OC)c2c1CCC(NCc1cc(C)cc(F)c1)C2 (stereo not shown)    Emax at 0.3 µM             76%
5     COc1cc(CCNCc2cc(C)cc(Cl)c2)c(OC)cc1Br    Emax at 0.3 µM             85%
6      COc1ccc(OC)c(CCNCc2cc(C)cc(C#N)c2)c1    Emax at 0.3 µM             16%
7  COc1cc(N2CCOCC2)c(OC)cc1CCNCc1cc(C)cc(Cl)c1    Emax at 0.3 µM             41%

I have this compound here, COc1ccc(OC)c(C(O)CNCc2cc(C)cc(Cl)c2)c1 (stereo not shown) , and I need its recorded Emax at 0.3 µM.
80%

Ok, now COc1ccc(OC)c(CCNCc2ccc(C)cc2Cl)c1
8%
